// values below are reported koff
# Target under test: human NGF (Homo sapiens, UniProt P01138)
# Sequence (P01138 122-241): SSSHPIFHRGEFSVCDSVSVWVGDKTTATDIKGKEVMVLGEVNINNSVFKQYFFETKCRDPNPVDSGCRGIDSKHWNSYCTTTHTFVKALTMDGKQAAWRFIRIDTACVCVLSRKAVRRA
# Protocol: BIAcore screening assay of Fab library clones (koff)
# Type: binding
# Measurement setup: Table 3: heavy chain library clones paired with 6D5 light chain
// note: answer is a bare numeric in s⁻¹

H225: heavy chain library clone, CDRH1 SEQ ID NO:34, CDRH2 SEQ ID NO:35 (antibody, V domains shown) VH: QVQLQESGPGLVKPSETLSLTCTVSGFSLIGYDVTWIRQPPGKGLEWIGGIWGDGTTDYNSSVKSRVTISKDTSKNQFSLKLSSVTAADTAVYYCARGGYYYGTSYYFDYWGQGTLVTVS VL: DIQMTQSPSSLSASVGDRVTITCRASQDISNHLNWYQQKPGKAPKLLIYYISRFHSGVPSRFSGSGSGTDFTFTISSLQPEDIATYYCQQSKTLPYTFGQGTKLEIKRT :: 0.00038

Here is the next item to consider.
Returns the measured koff for the input molecule. Input: H28: heavy chain library clone, CDRH1 SEQ ID NO:44, CDRH2 SEQ ID NO:45 (antibody, V domains shown) VH: QVQLQESGPGLVKPSETLSLTCTVSGFSLIGYDSTWIRQPPGKGLEWIGSIWGDGTTDYNSALKSRVTISKDTSKNQFSLKLSSVTAADTAVYYCARGGYYYGTSYYFDYWGQGTLVTVS VL: DIQMTQSPSSLSASVGDRVTITCRASQDISNHLNWYQQKPGKAPKLLIYYISRFHSGVPSRFSGSGSGTDFTFTISSLQPEDIATYYCQQSKTLPYTFGQGTKLEIKRT
0.00075
